target: HBsAg of HBV genotype D, serotype ayw (Hepatitis B virus); assay: cell-based or functional assay
measured property: Virus neutralization EC50 (nM)
Write the value in nM as a bare number.

Asked: Please supply the value of reported Virus neutralization EC50 for the item NOV3842 (antibody, human IgG1, lambda, V domains shown, Full human IgG1 (lambda) expressed in CHO cells) VH: EVQLLESGGGLVQPGGSRRLSCAASGFTFSYYGMNWVRQAPGKGLEWVSGITNVGSITYYADTVKGRFSISRDNSKNTLFLQMNSLRAEDTAVYYCAKVGVRSSSGMWDLDYWGQGTLVTVSS VL: SYVLTQPPSVSVAPGQTARLSCGGNNIGSKSLQWYQQKPGQAPVLVVNDESDRPSGIPERFSGSNSGNTATLTISRVEAGDEADYYCQVWDTSSDHVVFGGGTKLTVLG
Given back: 0.23

Asked: Please supply the value of reported Virus neutralization EC50 for the item NOV3834 (antibody, human IgG1, kappa, V domains shown, Full human IgG1 (kappa) expressed in CHO cells) VH: QVQLVESGGGVVQPGRSLRLSCAASGFTFNRYGMHWVRQAPGKGLEWVAGIWHDGSHKYYADSLRGRFTISRDNAKNTLDLQLNRLRAEDTSVYYCVRQTNRGRLDDAFDIWGQGTMVTVSS VL: DIQMTQSPSSLSAAVGDRVTISCRASQTISSYLNWYQQKPGEAPKLLIYAASTLQSGVPSRFGGSGSGTDFTLTISSLQPEDSATYYCQQNYDTLWTFGQGTKVEIKR
Given back: 0.24

Asked: Please supply the value of reported Virus neutralization EC50 for the item NOV3835 (antibody, human IgG1, kappa, V domains shown) VH: QVQLVESGGGVVQPGRSLRLSCAASGFTFDRYGMHWVRQAPGKGLEWVAGIWHEGSHKYYADSLRGRFTISRDNAKNTLDLQLNRLRAEDTSVYYCVRQTNRGRLDDAFDIWGQGTMVTVSS VL: DIQMTQSPSSLSAAVGDRVTISCRASQTISSYLNWYQQKPGEAPKLLIYAASTLQSGVPSRFGGSGSGTDFTLTISSLQPEDSATYYCQQNYDTLWTFGQGTKVEIKR
Given back: 0.72

Asked: Please supply the value of reported Virus neutralization EC50 for the item NOV3540 (antibody, human IgG1, kappa, V domains shown, Full human IgG1 (kappa) expressed in CHO cells) VH: EVQLLESGGGLVQPGGSLRLSCAASGFTFSPHAMSWVRQAPGKGLEWVSAISDSGGSTHYADSVKGRFTISRDNSKNTLYLQMNSLRAEDTAVYYCARDDDAWSGYDYWFDYWGQGTLVTVSS VL: DIQMTQSPSSLSASVGDRVTITCRASQSISPYLNWYQQKPGKAPKLLIYAADSLQSGVPSRFSGSGSGTDFTLTISSLQPEDFATYYCQQSYKIPLTFGQGTKVEIKR
Given back: 0.085

Asked: Please supply the value of reported Virus neutralization EC50 for the item NOV3357 (antibody, human IgG1, kappa, V domains shown, Full human IgG1 (kappa) expressed in CHO cells) VH: EVQLLESGGGLVQPGGSLRLSCAASGFTFSPHAMSWVRQAPGKGLEWVSAISDSGGSTHYADSVKGRFTISRDNSKNTLYLQMNSLRAEDTAVYYCARDDDGWSGYDYWFDYWGQGTLVTVSS VL: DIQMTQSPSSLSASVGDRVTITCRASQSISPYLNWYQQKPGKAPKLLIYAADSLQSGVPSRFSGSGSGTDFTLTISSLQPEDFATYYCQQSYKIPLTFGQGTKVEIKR
Given back: 0.056
